Reference for the values: patent US4207326A

Test system: A. corymbifera
Experiment: Antifungal activity: Minimum Inhibitory Concentration
Format: cell-based, Absidia corymbifera NCPF 2001
Settings: Lichtheimia corymbifera, A. corymbifera, Day 2; 27° C., one week; read-out: Minimum Inhibitory Concentration
Procedure: The antimicrobial activity was determined by inoculation of the test microorganism into suitable growth media containing solutions of the compounds at concentrations of 100, 50, 10, 5, 1.0, 0.5 and 0.1 μg/ml. […] After incubation the antimicrobial activity was recorded as the Minimal Inhibitory Concentration (M.I.C.), i.e., the lowest concentration preventing macroscopically visible growth, for each test compound against each organism. […]

| recordSmiles | MIC |
| --- | --- |
| CCCCCCCCCCCCCCn1ccc[n+]1C | 10 µg/mL |
| CCCCCCCCCCCCn1ccc[n+]1C | 100 µg/mL |
| CCCCCCCCCCCCCCCCn1c(C)cc(C)[n+]1C | 50 µg/mL |
| CCCCCCCCCCCCn1c(C)cc(C)[n+]1C | > 100 µg/mL |
| CCCCCCCCCCCC[n+]1c(C)cc(C)n1Cc1ccc(Cl)cc1.[Br-] | 50 µg/mL |
| CCCCCCCCCCCCCC[n+]1c(C)cc(C)n1Cc1ccc([N+](=O)[O-])cc1.[Br-] | 50 µg/mL |
| CCCCCCCCCCCC[n+]1c(C)cc(C)n1Cc1ccc(Cl)cc1Cl.[Br-] | 10 µg/mL |
| CCCCCCCCCCCCCCCCn1ccc[n+]1C | 5 µg/mL |
| C=CCn1c(C)cc(C)[n+]1CCCCCCCCCCCCCCCC.[Br-] | 5 µg/mL |

* * *

tested on: P. mirabilis; assay: Antibacterial activity: Minimum Inhibitory Concentration; format: cell-based, Proteus mirabilis NCTC 8559; settings: Proteus mirabilis; P. mirabilis, Day 2; 37° C., 24 hours; read-out: Minimum Inhibitory Concentration
Items are presented alongside their recorded MIC.
valueKind: MIC (µg/mL)

| compound | testTarget | valueKind | readoutUnits | testValue |
| --- | --- | --- | --- | --- |
| CCCCCCCCCCCCCC[n+]1c(C)cc(C)n1Cc1ccc([N+](=O)[O-])cc1.[Br-] [Example 6-D] | P. mirabilis | MIC | µg/mL | 50 |
| C=CCn1c(C)cc(C)[n+]1CCCCCCCCCCCCCCCC.[Br-] [Example 7] | P. mirabilis | MIC | µg/mL | 50 |
| CCCCCCCCCCCC[n+]1c(C)cc(C)n1Cc1ccc(Cl)cc1Cl.[Br-] [Example 6-B] | P. mirabilis | MIC | µg/mL | 50 |
| CCCCCCCCCCCC[n+]1c(C)cc(C)n1Cc1ccc(Cl)cc1.[Br-] [Example 6-E] | P. mirabilis | MIC | µg/mL | 50 |
| CCCCCCCCCCCCCCCCn1c(C)cc(C)[n+]1C [Example 2] | P. mirabilis | MIC | µg/mL | 10 |
| CCCCCCCCCCCCn1c(C)cc(C)[n+]1C [Example 1] | P. mirabilis | MIC | µg/mL | 100 |
| CCCCCCCCCCCCn1ccc[n+]1C [Example 3-E] | P. mirabilis | MIC | µg/mL | 100 |
| CCCCCCCCCCCCCCCCn1ccc[n+]1C [Example 3-D] | P. mirabilis | MIC | µg/mL | 50 |
| CCCCCCCCCCCCCCn1ccc[n+]1C [Example 3-G] | P. mirabilis | MIC | µg/mL | 50 |
